Taken from paper PMC5802362.

A collection of compounds and their measured pKi
SYSTEM: butyrylcholinesterase (Equus caballus)
Sequence (P81908 whole entry): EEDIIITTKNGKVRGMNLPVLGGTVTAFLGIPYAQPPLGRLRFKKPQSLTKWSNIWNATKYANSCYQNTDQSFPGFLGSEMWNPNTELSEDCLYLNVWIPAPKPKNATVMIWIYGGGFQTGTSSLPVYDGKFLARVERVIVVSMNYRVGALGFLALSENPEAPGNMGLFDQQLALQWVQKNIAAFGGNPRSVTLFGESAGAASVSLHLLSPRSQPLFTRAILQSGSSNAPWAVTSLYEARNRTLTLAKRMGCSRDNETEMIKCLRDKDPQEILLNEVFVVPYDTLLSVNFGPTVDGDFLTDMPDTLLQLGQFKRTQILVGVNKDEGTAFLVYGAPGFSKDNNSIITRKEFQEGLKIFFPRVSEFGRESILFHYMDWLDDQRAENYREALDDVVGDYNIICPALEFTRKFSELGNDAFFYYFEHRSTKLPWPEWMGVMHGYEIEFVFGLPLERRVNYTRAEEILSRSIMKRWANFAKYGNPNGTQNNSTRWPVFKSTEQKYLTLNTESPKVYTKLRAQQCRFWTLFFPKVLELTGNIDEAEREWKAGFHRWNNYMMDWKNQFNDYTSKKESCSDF
Entry type: numeric. Quantity: pKi, the -log10 of concentration in molar units.

- SMILES_STR: "NCCCC[C@H](NC(=O)OCc1ccccc1)C(=O)O"
  MEASUREMENT_NAME: "pKi"
  NUMERIC_VALUE: 2.81
- SMILES_STR: "O=C(N[C@@H](Cc1c[nH]c2ccccc12)C(=O)O)OCC1c2ccccc2-c2ccccc21"
  MEASUREMENT_NAME: "pKi"
  NUMERIC_VALUE: 3.71
- SMILES_STR: "CC(C)C[C@H](NC(=O)OCc1ccccc1)C(=O)O"
  MEASUREMENT_NAME: "pKi"
  NUMERIC_VALUE: 2.94
- SMILES_STR: "CC[C@H](C)[C@H](NC(=O)OCC1c2ccccc2-c2ccccc21)C(=O)O"
  MEASUREMENT_NAME: "pKi"
  NUMERIC_VALUE: 3.71
- SMILES_STR: "CC(C)[C@H](NC(=O)OCC1c2ccccc2-c2ccccc21)C(=O)O"
  MEASUREMENT_NAME: "pKi"
  NUMERIC_VALUE: 3.50
- SMILES_STR: "O=C(N[C@@H](Cc1ccc(O)cc1)C(=O)O)OCC1c2ccccc2-c2ccccc21"
  MEASUREMENT_NAME: "pKi"
  NUMERIC_VALUE: 3.51
- SMILES_STR: "O=C(N[C@@H](Cc1ccccc1)C(=O)O)OCC1c2ccccc2-c2ccccc21"
  MEASUREMENT_NAME: "pKi"
  NUMERIC_VALUE: 3.48
- SMILES_STR: "NCCCC[C@H](NC(=O)OCC1c2ccccc2-c2ccccc21)C(=O)O"
  MEASUREMENT_NAME: "pKi"
  NUMERIC_VALUE: 3.82

Now, please, on to the next compound.
Find pKi (butyrylcholinesterase (Equus caballus)) for the entry `CC(C)C[C@H](NC(=O)OCC1c2ccccc2-c2ccccc21)C(=O)O`
3.94
